The measurements presented in this section are drawn from patent US20100330148A1.

# Test system: Jurkat T cells
# test-method-notes: Jurkat T-cell proliferation, [3H]-thymidine incorporation
# Format: cell-based
# run-parameters: Homo sapiens, Jurkat; [3H]-thymidine incorporation; +/- standard error of the mean
measured-endpoint: pIC50
By convention, pIC50 is the negative base-10 log of a molar concentration.

Given `COc1c(C)c2c(c(O)c1C/C=C(\C)CCC(=O)O)C(=O)OC2` , respond with its pIC50.
6.89
